Assay target: recombinant human SphK2 (Homo sapiens)
Sequence (Q9NRA0 1-654): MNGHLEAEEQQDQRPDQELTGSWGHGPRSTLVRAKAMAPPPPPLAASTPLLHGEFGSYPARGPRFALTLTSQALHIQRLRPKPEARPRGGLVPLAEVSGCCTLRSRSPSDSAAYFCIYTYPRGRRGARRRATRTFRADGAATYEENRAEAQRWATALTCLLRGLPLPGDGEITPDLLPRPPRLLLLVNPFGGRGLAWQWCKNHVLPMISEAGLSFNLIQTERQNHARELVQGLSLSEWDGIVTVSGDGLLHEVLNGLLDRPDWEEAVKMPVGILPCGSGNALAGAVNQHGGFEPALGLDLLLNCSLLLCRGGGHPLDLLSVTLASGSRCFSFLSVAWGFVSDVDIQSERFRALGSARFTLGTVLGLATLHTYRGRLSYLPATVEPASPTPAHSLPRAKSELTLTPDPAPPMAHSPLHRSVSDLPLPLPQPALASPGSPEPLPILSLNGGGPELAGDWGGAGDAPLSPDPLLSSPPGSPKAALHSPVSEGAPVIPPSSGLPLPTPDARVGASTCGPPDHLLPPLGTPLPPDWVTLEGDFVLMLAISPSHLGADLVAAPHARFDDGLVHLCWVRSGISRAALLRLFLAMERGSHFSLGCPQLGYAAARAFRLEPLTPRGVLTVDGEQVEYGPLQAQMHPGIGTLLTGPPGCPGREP
Measurement notes: Fluorometric NBD-sphingosine sphingosine kinase inhibition assay, SphK2
Condition context: read-out: SphK2 inhibition, 10 μM compound
// values below are reported inhibition at 10 µM
Just the number please, in %, no unit attached.

Completed entries (count: 3):
[
  {
    "Compound": "O=C(NCc1ccncc1)C12CC3CC(C1)CC(c1ccc(Cl)cc1)(C3)C2 [opaganib, reference compound]",
    "inhibition at 10 µM, %": 36
  },
  {
    "Compound": "COc1ccc(OC2=CC(=O)c3ccc(CN4CCC[C@@H]4CO)nc3C2=O)cc1",
    "inhibition at 10 µM, %": 82
  },
  {
    "Compound": "COc1ccc(OC2=CC(=O)c3ccc(C)nc3C2=O)cc1",
    "inhibition at 10 µM, %": 37
  }
]

Please fill in: inhibition at 10 µM reported for O=C1C=C(Oc2ccc(F)cc2)C(=O)c2nc(CN3CCC[C@@H]3CO)ccc21 = 43

Please fill in: inhibition at 10 µM reported for Cc1ccc2c(n1)C(=O)C(Oc1ccc(F)c(Cl)c1)=CC2=O = 0

###

Assay target: recombinant human SphK1 (Homo sapiens, UniProt Q9NYA1)
Sequence (Q9NYA1 whole entry): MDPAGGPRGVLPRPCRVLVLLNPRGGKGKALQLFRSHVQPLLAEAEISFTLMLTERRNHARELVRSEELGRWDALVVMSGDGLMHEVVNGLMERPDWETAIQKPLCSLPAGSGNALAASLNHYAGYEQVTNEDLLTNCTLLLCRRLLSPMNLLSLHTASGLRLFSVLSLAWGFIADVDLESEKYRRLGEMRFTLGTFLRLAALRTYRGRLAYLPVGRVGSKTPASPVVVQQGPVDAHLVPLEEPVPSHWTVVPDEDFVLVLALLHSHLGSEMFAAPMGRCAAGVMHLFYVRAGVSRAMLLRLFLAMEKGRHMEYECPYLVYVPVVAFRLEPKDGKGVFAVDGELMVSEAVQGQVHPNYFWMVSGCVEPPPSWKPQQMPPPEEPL
Measurement notes: Fluorometric NBD-sphingosine sphingosine kinase inhibition assay, SphK1
Condition context: read-out: Spk1 % (inhibition), replicate B, 10 μM, Tables S3-S5
Classify as follows. Reported inhibition at 10 µM greater than or equal to 20%: met. Reported inhibition at 10 µM below: not met.

[
  {
    "Smiles string": "Cc1ccc2c(n1)C(=O)C(Oc1ccc(C#N)cc1)=CC2=O",
    "Class name": "met"
  },
  {
    "Smiles string": "O=Cc1ccc2c(n1)C(=O)C(Oc1ccc(F)cc1)=CC2=O",
    "Class name": "not met"
  }
]

In plain terms: is recorded inhibition at 10 µM at least 20% for Cc1ccc2c(n1)C(=O)C(Oc1ccc(F)cc1)=CC2=O ? met

In plain terms: is recorded inhibition at 10 µM at least 20% for Cc1ccc2c(n1)C(=O)C(Oc1ccc(F)c(F)c1)=CC2=O ? met

In plain terms: is recorded inhibition at 10 µM at least 20% for O=Cc1ccc2c(n1)C(=O)C(Oc1ccc(F)c(F)c1)=CC2=O ? not met

In plain terms: is recorded inhibition at 10 µM at least 20% for COc1ccc(OC2=CC(=O)c3ccc(CN4CCC[C@@H]4CO)nc3C2=O)cc1 ? met

In plain terms: is recorded inhibition at 10 µM at least 20% for COc1ccc(OC2=CC(=O)c3ccc(C=O)nc3C2=O)cc1 ? met

In plain terms: is recorded inhibition at 10 µM at least 20% for COc1cccc(OC2=CC(=O)c3ccc(C=O)nc3C2=O)c1 ? not met

In plain terms: is recorded inhibition at 10 µM at least 20% for Cc1ccc2c(n1)C(=O)C(Oc1ccc(F)c(Cl)c1)=CC2=O ? not met

In plain terms: is recorded inhibition at 10 µM at least 20% for COc1cccc(OC2=CC(=O)c3ccc(C)nc3C2=O)c1 ? met

In plain terms: is recorded inhibition at 10 µM at least 20% for COc1ccc(OC2=CC(=O)c3ccc(C)nc3C2=O)cc1 ? met

###

Assay target: recombinant human SphK1 (Homo sapiens, UniProt Q9NYA1)
Measurement notes: Fluorometric NBD-sphingosine sphingosine kinase inhibition assay, SphK1
Condition context: read-out: Spk1 % (inhibition), replicate A, 10 μM, Tables S3-S5
Classify as follows. Reported inhibition at 10 µM greater than or equal to 20%: label 1. Reported inhibition at 10 µM below: label 0.

Past entries and their recorded results:
[
  {
    "Smiles string": "Cc1ccc2c(n1)C(=O)C(Oc1ccc(F)c(F)c1)=CC2=O",
    "Assay target": "recombinant human SphK1 (Homo sapiens, UniProt Q9NYA1)",
    "Class name": "label 0"
  },
  {
    "Smiles string": "COc1cccc(OC2=CC(=O)c3ccc(C=O)nc3C2=O)c1",
    "Assay target": "recombinant human SphK1 (Homo sapiens, UniProt Q9NYA1)",
    "Class name": "label 0"
  },
  {
    "Smiles string": "COc1cccc(OC2=CC(=O)c3ccc(C)nc3C2=O)c1",
    "Assay target": "recombinant human SphK1 (Homo sapiens, UniProt Q9NYA1)",
    "Class name": "label 1"
  },
  {
    "Smiles string": "O=Cc1ccc2c(n1)C(=O)C(Oc1ccc(F)c(F)c1)=CC2=O",
    "Assay target": "recombinant human SphK1 (Homo sapiens, UniProt Q9NYA1)",
    "Class name": "label 0"
  },
  {
    "Smiles string": "COc1ccc(OC2=CC(=O)c3ccc(CN4CCC[C@@H]4CO)nc3C2=O)cc1",
    "Assay target": "recombinant human SphK1 (Homo sapiens, UniProt Q9NYA1)",
    "Class name": "label 1"
  },
  {
    "Smiles string": "COc1ccc(OC2=CC(=O)c3ccc(C=O)nc3C2=O)cc1",
    "Assay target": "recombinant human SphK1 (Homo sapiens, UniProt Q9NYA1)",
    "Class name": "label 0"
  },
  {
    "Smiles string": "Cc1ccc2c(n1)C(=O)C(Oc1ccc(CCO)cc1)=CC2=O",
    "Assay target": "recombinant human SphK1 (Homo sapiens, UniProt Q9NYA1)",
    "Class name": "label 0"
  }
]

In plain terms: is recorded inhibition at 10 µM at least 20% for Cc1ccc2c(n1)C(=O)C(Oc1ccc(Cl)c(Cl)c1)=CC2=O ? label 0

###

Assay target: recombinant human SphK2 (Homo sapiens, UniProt Q9NRA0)
Sequence (Q9NRA0 1-654): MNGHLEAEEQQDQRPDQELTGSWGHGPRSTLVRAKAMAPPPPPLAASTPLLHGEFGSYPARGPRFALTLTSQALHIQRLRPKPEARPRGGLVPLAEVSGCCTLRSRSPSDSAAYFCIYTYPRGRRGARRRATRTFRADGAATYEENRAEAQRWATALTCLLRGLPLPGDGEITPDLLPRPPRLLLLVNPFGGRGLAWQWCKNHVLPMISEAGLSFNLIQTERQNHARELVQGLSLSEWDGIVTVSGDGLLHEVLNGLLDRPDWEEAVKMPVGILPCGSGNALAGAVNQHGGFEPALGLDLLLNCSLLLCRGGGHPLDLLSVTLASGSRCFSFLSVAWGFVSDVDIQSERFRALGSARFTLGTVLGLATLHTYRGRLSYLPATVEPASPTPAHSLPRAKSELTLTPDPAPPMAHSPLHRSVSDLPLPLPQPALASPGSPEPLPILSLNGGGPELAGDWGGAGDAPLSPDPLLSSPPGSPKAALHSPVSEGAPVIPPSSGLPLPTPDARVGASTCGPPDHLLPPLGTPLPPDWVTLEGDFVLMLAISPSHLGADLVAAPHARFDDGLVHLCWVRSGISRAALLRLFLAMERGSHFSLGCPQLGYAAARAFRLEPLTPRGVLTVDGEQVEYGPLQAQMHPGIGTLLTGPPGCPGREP
Measurement notes: Fluorometric NBD-sphingosine sphingosine kinase inhibition assay, SphK2
Condition context: read-out: Spk2 % (inhibition), Average, 10 μM, Tables S3-S5
Reported metric: inhibition at 10 µM

Completed entries (count: 3):
[
  {
    "Smiles string": "COc1cccc(OC2=CC(=O)c3ccc(C)nc3C2=O)c1",
    "Recorded result": "49.7%"
  },
  {
    "Smiles string": "Cc1ccc2c(n1)C(=O)C(Oc1ccc(C#N)cc1)=CC2=O",
    "Recorded result": "55.6%"
  },
  {
    "Smiles string": "Cc1ccc2c(n1)C(=O)C(Oc1ccc(F)cc1)=CC2=O",
    "Recorded result": "59.6%"
  }
]

Please fill in: inhibition at 10 µM reported for COc1cccc(OC2=CC(=O)c3ccc(C=O)nc3C2=O)c1 = 0.4%
